Biological target: human active recombinant p38 (p38α) (Homo sapiens, UniProt Q16539)
Construct: 6His
Sequence (Q16539 whole entry): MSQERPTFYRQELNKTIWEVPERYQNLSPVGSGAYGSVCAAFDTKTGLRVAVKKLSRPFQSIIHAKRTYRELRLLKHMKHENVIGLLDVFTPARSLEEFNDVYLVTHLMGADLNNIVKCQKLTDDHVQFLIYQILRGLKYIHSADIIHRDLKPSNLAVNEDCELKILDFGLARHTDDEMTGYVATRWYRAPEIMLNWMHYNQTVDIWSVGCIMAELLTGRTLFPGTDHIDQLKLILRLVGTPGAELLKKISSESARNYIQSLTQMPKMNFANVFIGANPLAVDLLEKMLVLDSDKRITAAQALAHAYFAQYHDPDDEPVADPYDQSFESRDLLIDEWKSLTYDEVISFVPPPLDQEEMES
Experiment: p38 Alpha Enzyme Assay (AlphaScreen, biotinylated-ATF2 substrate)
Assay type: biochemical
Details: means of replicate determinations; pre-incubated for 4 hours at 37° C.; SD of assay between 0.2 and 0.3 log units; read-out: p38α inhibition Mean pIC50 (converted)
metric: IC50 (nM)

Previously resolved entries follow.
compound: Cc1c(F)cc(C(=O)NC2CC2)cc1-c1ccc2c(=O)n(CC3(CO)CC3)cc(SC[C@@H]3CCCNC3)c2c1 [Example 63]
IC50 [nM]: 0.398
//
compound: Cc1c(F)cc(C(=O)NC2CC2)cc1-c1ccc2c(=O)n(CC(C)(C)CO)cc(CN3CCC[C@@H](N)C3)c2c1 [Example 30]
IC50 [nM]: 0.126
//
compound: Cc1c(F)cc(C(=O)NC2CC2)cc1-c1ccc2c(=O)n(CC3CC3)cc(S(=O)(=O)C3CCNCC3)c2c1 [Example 62]
IC50 [nM]: 0.2
//
compound: Cc1c(F)cc(C(=O)NC2CC2)cc1-c1ccc2c(=O)n(CC(C)(C)CO)cc(CN3CCCNCC3)c2c1 [Example 23]
IC50 [nM]: 0.316
//
compound: CNC1CCN(S(=O)(=O)c2cn(CC3CC3)c(=O)c3ccc(-c4cc(C(=O)NC5CC5)cc(F)c4C)cc23)CC1 [Example 52]
IC50 [nM]: 0.2

[a] Cc1c(F)cc(C(=O)NC2CC2)cc1-c1ccc2c(=O)n(CC3(CO)CC3)cc(CN3CCNC[C@@H]3CO)c2c1 [Example 16]
[b] Cc1c(F)cc(C(=O)NC2CC2)cc1-c1ccc2c(=O)n(CC3(CO)CC3)cc(CN3CCNC[C@H]3C)c2c1 [Example 33]
Challenge: Lab note: check whether a or b shows the higher recorded IC50. Identify your selection by its label.
Response given: a
